Test system: 521955-158-R2-J5-PDC complex spheroid growth, % test/control;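 note: spheroids exposed to agents for 7 days before readout; 100% = DMSO vehicle control viability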
Assay: Anticancer human tumor 521955-158-R2-J5-PDC patient-derived pancreatic carcinoma cell line growth inhibition [Asc]
Conditions: second compound 3.16 µM; first compound 0.1 µM; hits give low values
test.readout: viability, T/C (%)
Return type: number; implicit unit %.

Query string: // Input: C=CC(=O)N1CCN(c2nc(=O)n(-c3c(C)ccnc3C(C)C)c3nc(-c4c(O)cccc4F)c(F)cc23)C(C)C1 (configuration not stated) + Cc1c(S(C)(=O)=O)c(-c2cc(F)cc(N3CCN(c4ccc(NS(=O)(=O)c5ccc(NC(CCN6CCC(C(=O)OCCCP(=O)(O)O)CC6)CSc6ccccc6)c(S(=O)(=O)C(F)(F)F)c5)cc4)CC3)c2)c(-c2ccc(Cl)cc2)n1C(C)C . Output its viability, T/C only.
Result string: 97.8

Query string: // Input: O=C(c1ccc(F)c(F)c1Nc1ccc(I)cc1F)N1CC(O)([C@@H]2CCCCN2)C1 + Cc1c(S(C)(=O)=O)c(-c2cc(F)cc(N3CCN(c4ccc(NS(=O)(=O)c5ccc(NC(CCN6CCC(C(=O)OCCCP(=O)(O)O)CC6)CSc6ccccc6)c(S(=O)(=O)C(F)(F)F)c5)cc4)CC3)c2)c(-c2ccc(Cl)cc2)n1C(C)C . Output its viability, T/C only.
Result string: 31.6

Query string: // Input: C=C(F)C(=O)N1CCN(c2nc(OCC3CCCN3C)nc3c2CCN(c2cccc4cccc(Cl)c24)C3)CC1CC#N (configuration not stated) + Cc1c(S(C)(=O)=O)c(-c2cc(F)cc(N3CCN(c4ccc(NS(=O)(=O)c5ccc(NC(CCN6CCC(C(=O)OCCCP(=O)(O)O)CC6)CSc6ccccc6)c(S(=O)(=O)C(F)(F)F)c5)cc4)CC3)c2)c(-c2ccc(Cl)cc2)n1C(C)C . Output its viability, T/C only.
Result string: 80.9

Query string: // Input: O=C(c1cc(Cc2n[nH]c(=O)c3ccccc23)ccc1F)N1CCN(C(=O)C2CC2)CC1 + Cc1c(S(C)(=O)=O)c(-c2cc(F)cc(N3CCN(c4ccc(NS(=O)(=O)c5ccc(NC(CCN6CCC(C(=O)OCCCP(=O)(O)O)CC6)CSc6ccccc6)c(S(=O)(=O)C(F)(F)F)c5)cc4)CC3)c2)c(-c2ccc(Cl)cc2)n1C(C)C . Output its viability, T/C only.
Result string: 50.3

Query string: // Input: COc1c(OCCCN2CCOCC2)ccc2c3n(c(=NC(=O)c4cnc(N)nc4)nc12)CCN3 + Cc1c(S(C)(=O)=O)c(-c2cc(F)cc(N3CCN(c4ccc(NS(=O)(=O)c5ccc(NC(CCN6CCC(C(=O)OCCCP(=O)(O)O)CC6)CSc6ccccc6)c(S(=O)(=O)C(F)(F)F)c5)cc4)CC3)c2)c(-c2ccc(Cl)cc2)n1C(C)C . Output its viability, T/C only.
Result string: 32

Query string: // Input: CCN1CCN(Cc2ccc(Nc3ncc(F)c(-c4cc(F)c5nc(C)n(C(C)C)c5c4)n3)nc2)CC1 + Cc1c(S(C)(=O)=O)c(-c2cc(F)cc(N3CCN(c4ccc(NS(=O)(=O)c5ccc(NC(CCN6CCC(C(=O)OCCCP(=O)(O)O)CC6)CSc6ccccc6)c(S(=O)(=O)C(F)(F)F)c5)cc4)CC3)c2)c(-c2ccc(Cl)cc2)n1C(C)C . Output its viability, T/C only.
Result string: 61.4

Query string: // Input: CNC(C)C(=O)NC1CN(S(=O)(=O)c2cccc(S(=O)(=O)N3CCC4CCC(C(=O)NC(c5ccccc5)c5ccccc5)N4C(=O)C(NC(=O)C(C)NC)C3)c2)CCC2CCC(C(=O)NC(c3ccccc3)c3ccccc3)N2C1=O (configuration not stated) + Cc1c(S(C)(=O)=O)c(-c2cc(F)cc(N3CCN(c4ccc(NS(=O)(=O)c5ccc(NC(CCN6CCC(C(=O)OCCCP(=O)(O)O)CC6)CSc6ccccc6)c(S(=O)(=O)C(F)(F)F)c5)cc4)CC3)c2)c(-c2ccc(Cl)cc2)n1C(C)C . Output its viability, T/C only.
Result string: 80.6
